subject_of_test: 72 kDa type IV collagenase (Homo sapiens, UniProt P08253)
Sequence (P08253 110-660 limits assumed): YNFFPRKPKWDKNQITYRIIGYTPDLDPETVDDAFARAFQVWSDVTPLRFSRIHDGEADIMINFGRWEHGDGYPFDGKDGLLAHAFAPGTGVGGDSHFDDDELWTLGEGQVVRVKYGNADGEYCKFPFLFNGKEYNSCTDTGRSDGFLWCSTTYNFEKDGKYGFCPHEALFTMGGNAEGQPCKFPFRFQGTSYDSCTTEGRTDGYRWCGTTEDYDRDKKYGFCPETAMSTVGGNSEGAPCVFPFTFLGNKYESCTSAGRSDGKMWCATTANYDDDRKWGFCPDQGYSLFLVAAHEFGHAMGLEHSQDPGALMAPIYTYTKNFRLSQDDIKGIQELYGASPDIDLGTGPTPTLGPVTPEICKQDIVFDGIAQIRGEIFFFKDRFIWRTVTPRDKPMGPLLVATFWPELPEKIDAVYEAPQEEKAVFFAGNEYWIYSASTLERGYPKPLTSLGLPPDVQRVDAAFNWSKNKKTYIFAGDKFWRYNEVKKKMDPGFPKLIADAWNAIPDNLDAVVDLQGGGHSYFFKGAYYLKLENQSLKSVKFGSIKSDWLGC
condition_notes: at 1 mM;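 further: recombinant human enzyme, inhibition read after a 30 min incubation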
Give label 1 when the value for inhibition is at least 30%. Give label 0 when it is less.

{"columns": ["record_smiles", "subject_of_test", "label_value"],
 "data": [
  ["O=C(O)c1cccc(Br)n1", "72 kDa type IV collagenase (Homo sapiens, UniProt P08253)", "label 0"],
  ["O=c1ccocc1O", "72 kDa type IV collagenase (Homo sapiens, UniProt P08253)", "label 1"],
  ["O=C(O)c1c(O)cccc1O", "72 kDa type IV collagenase (Homo sapiens, UniProt P08253)", "label 0"],
  ["Oc1cccc2cccnc12", "72 kDa type IV collagenase (Homo sapiens, UniProt P08253)", "label 1"],
  ["O=C(O)c1nc(Cl)ccc1Cl", "72 kDa type IV collagenase (Homo sapiens, UniProt P08253)", "label 0"],
  ["Cc1c(O)c(=S)ccn1C", "72 kDa type IV collagenase (Homo sapiens, UniProt P08253)", "label 1"],
  ["Oc1ccccc1-c1nc2ccccc2s1", "72 kDa type IV collagenase (Homo sapiens, UniProt P08253)", "label 0"],
  ["O=c1cc(CO)occ1O", "72 kDa type IV collagenase (Homo sapiens, UniProt P08253)", "label 1"],
  ["Nc1ccc2cccc(O)c2n1", "72 kDa type IV collagenase (Homo sapiens, UniProt P08253)", "label 1"],
  ["Nc1[nH]cnc2ncnc1-2", "72 kDa type IV collagenase (Homo sapiens, UniProt P08253)", "label 0"],
  ["CC(=O)C(Cl)C(C)=O", "72 kDa type IV collagenase (Homo sapiens, UniProt P08253)", "label 0"],
  ["O=C(O)c1ccc2cccc(O)c2n1", "72 kDa type IV collagenase (Homo sapiens, UniProt P08253)", "label 1"],
  ["O=C(O)c1ccc(C(=O)O)nc1", "72 kDa type IV collagenase (Homo sapiens, UniProt P08253)", "label 0"],
  ["Oc1ccccc1O", "72 kDa type IV collagenase (Homo sapiens, UniProt P08253)", "label 0"],
  ["CC(=O)CC(C)=O", "72 kDa type IV collagenase (Homo sapiens, UniProt P08253)", "label 0"],
  ["Cc1cc(=O)[nH]c(=S)[nH]1", "72 kDa type IV collagenase (Homo sapiens, UniProt P08253)", "label 0"],
  ["O=C(O)c1ccc(O)cc1O", "72 kDa type IV collagenase (Homo sapiens, UniProt P08253)", "label 0"]
]}
